test system: Guinea pig tracheal smooth muscle; assay: Electrical field stimulated guinea pig tracheal smooth muscle contraction (ex vivo); conditions: sub-maximal EFS, cumulative dose response curve, three animals pooled; 95% Cl 0.78-0.94; read-out: IC50 (inhibition of EFS-induced baseline contraction)
Quantity measured: IC50 (nM)
Give the quantity in nM, number only.

# input Param request: IC50 | system Guinea pig tracheal smooth muscle | item CC(C)[N+]1(C)[C@@H]2CC[C@H]1CC(OC(=O)C(CO)c1ccccc1)C2 (stereo partly shown) [Ipratropium bromide]
# output 0.86

----------
target: soluble guanylate cyclase (sGC) (Homo sapiens, UniProt Q02108+Q02153); construct: endogenously expressing soluble guanylate cyclase (sGC); endogenous in cells; host or cells: HEK293; test: sGC-HEK-cGMP assay with LC/MS detection (Example 2A); type: cell-based; settings: HEK293 cells, 10 μM DETA-NONOate, 20 min; concentration eliciting 50% of high control response (30 μM Compound Y); read-out: Absolute EC50 (nM) - binned
Sequence (Q02108 whole entry): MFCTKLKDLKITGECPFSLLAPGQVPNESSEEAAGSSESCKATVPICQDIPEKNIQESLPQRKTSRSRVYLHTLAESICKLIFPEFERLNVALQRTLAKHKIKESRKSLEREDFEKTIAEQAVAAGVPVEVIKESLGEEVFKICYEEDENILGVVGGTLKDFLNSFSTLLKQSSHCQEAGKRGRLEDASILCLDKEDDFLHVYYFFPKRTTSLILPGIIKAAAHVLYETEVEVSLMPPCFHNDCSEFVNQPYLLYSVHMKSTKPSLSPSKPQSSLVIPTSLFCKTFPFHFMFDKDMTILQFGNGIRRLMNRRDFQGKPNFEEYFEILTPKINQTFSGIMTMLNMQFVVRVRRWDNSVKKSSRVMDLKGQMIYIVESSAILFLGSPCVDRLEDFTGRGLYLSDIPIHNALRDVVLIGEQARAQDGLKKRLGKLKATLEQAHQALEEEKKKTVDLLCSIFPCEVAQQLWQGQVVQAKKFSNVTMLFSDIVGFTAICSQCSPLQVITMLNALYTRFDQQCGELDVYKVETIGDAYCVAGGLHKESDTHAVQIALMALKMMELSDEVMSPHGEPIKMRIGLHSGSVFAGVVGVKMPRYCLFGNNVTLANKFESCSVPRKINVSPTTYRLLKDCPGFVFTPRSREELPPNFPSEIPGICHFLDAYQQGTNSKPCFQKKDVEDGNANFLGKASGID
Sequence (Q02153 whole entry): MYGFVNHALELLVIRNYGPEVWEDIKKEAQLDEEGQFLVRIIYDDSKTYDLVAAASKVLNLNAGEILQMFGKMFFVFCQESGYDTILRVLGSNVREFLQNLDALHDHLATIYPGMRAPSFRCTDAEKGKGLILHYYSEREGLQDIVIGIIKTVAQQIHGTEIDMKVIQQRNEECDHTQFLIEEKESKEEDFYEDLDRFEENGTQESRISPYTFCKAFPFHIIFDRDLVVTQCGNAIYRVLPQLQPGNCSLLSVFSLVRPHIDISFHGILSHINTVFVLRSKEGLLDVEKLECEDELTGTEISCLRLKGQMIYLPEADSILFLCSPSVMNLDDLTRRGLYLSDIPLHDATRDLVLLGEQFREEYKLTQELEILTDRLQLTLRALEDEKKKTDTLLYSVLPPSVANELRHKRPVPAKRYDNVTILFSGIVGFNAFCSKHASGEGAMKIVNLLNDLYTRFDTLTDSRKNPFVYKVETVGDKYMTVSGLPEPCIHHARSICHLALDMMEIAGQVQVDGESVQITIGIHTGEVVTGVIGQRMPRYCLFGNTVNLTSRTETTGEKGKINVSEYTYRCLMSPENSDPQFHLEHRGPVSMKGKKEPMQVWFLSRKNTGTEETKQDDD
Quantity measured: EC50

# input // Input: CC(=O)c1cc(-c2nc(N)c3c(n2)NC(=O)C3(C)C(N)=O)nn1Cc1ccccc1F (stereo not drawn) . Output its EC50 only.
# output 100 to 1000 nM

# input Give EC50 for the following compound: COc1cc(-c2nc(N)c3c(n2)NC(=O)C3(C)C)nn1Cc1ccccc1F
# output 100 to 1000 nM

# input # return recorded EC50 for input CCOC(=O)C1(C)C(=O)Nc2nc(-c3cc(-c4ccon4)n(Cc4ccccc4F)n3)nc(Br)c21 (stereo not drawn)
# output 100 to 1000 nM

# input Return value of EC50 for input Cc1cc(-c2nc(N)c3c(n2)NC(=O)C3(C)C)nn1Cc1ccccc1F , no commentary.
# output > 1000 nM

# input Recall and state the measured EC50 for Cc1cc(-c2ncc3c(n2)NC(=O)C3(C)C)nn1Cc1ccccc1F .
# output > 1000 nM

# input Give me measured EC50, please, for this compound: Fc1ccccc1Cn1nc(-c2ncc3[nH]nnc3n2)cc1-c1ccon1
# output > 1000 nM

# input Look up EC50 of CCOC(=O)C1(C)C(=O)Nc2nc(-c3cc(C(C)=O)n(Cc4ccccc4F)n3)nc(N)c21 (stereo not drawn) and report it.
# output < 100 nM

# input Please look at this compound and report its EC50: OC(Cn1nnc2cnc(-c3cc(-c4ccon4)n(Cc4ccccc4F)n3)nc21)(C(F)(F)F)C(F)(F)F
# output > 1000 nM

# input Return EC50 for the following compound: COCc1cc(-c2nc(N)c3c(n2)NC(=O)C3(C)C(N)=O)nn1Cc1ccccc1F (stereo not drawn)
# output > 1000 nM

# input Read off the recorded EC50 for CC1(C(N)=O)C(=O)Nc2nc(-c3cc(-c4ccon4)n(Cc4ccccc4F)n3)ncc21 (stereo not drawn)
# output > 1000 nM

Continuing:
# input Provide one value: measured EC50 of COc1cc(-c2nc(N)c3c(n2)NC(=O)C3(C)c2nnc(C)o2)nn1Cc1ccccc1F (stereo not drawn)
# output < 100 nM

# input Complete the entry with EC50 for CCOC(=O)C1(C)C(=O)Nc2nc(-c3cc(-c4ccon4)n(Cc4ccccc4F)n3)ncc21 (stereo not drawn)
# output 100 to 1000 nM

----------
molecular target: sGC enzyme (Homo sapiens, UniProt Q02108+Q02153); construct: host or cells: HEK293 expressing GloSensor 40F cGMP; assay: cGMP GloSensor cell-based assay, 384-well format (Example 2B); conditions: HEK293 GloSensor 40F cGMP cells, 10 μM DETA-NONOate; 50% of high control response (Compound Y); read-out: sGC_HEK_GloSensor EC50/IC50 Abs (Norm) (nM) Binned
Sequence (Q02108 whole entry): as the sequence (Q02108 whole entry) above
Sequence (Q02153 whole entry): as the sequence (Q02153 whole entry) above
// EC50 lookup, one value per entry

Look over these answered cases.
# input Kindly indicate its recorded EC50. Item: CC1(C)C(=O)Nc2nc(-c3ccn(Cc4ccccc4F)n3)nc(N3CCOCC3)c21 [Compound I-76]
# output 100 to 1000 nM

# input Kindly indicate its recorded EC50. Item: Cc1cc(-c2nc(N)c3c(n2)NC(=O)C3(C)C)nn1Cc1ccccc1F [Compound I-71]
# output 100 to 1000 nM

# context switch: different compound, same EC50
# input For CC(=O)c1cc(-c2nnc3c(n2)NC(=O)C3(C)C)nn1Cc1ccccc1F [Compound I-70] , write its EC50.
# output 100 to 1000 nM

Entry source: patent US10844064B2
